// values below are reported pIC50
tested on: breast line MDA468; experiment: In vitro cell culture growth assay (MTS), MDA468; type: cell-based, human; details: Homo sapiens, 72 h, MDA468 cells, three days after drug treatment
pIC50: −log10 of the molar value.
Property name: pIC50

{"Compound": "O=C(NO)Nc1ccc(-c2nc(N3CCOCC3)c3cnn(-c4ccccc4)c3n2)cc1 [Compound 539]", "System under test": "breast line MDA468", "Property name": "pIC50", "Numeric readout": 5.96}
{"Compound": "COC(=O)Nc1ccc(-c2nc(N3CCOCC3)c3cnn(C4CCN(C(=O)N(C)C)CC4)c3n2)cc1 [Compound 808]", "System under test": "breast line MDA468", "Property name": "pIC50", "Numeric readout": 6.16}
{"Compound": "O=C(NO)Nc1ccc(-c2nc(N3CCOCC3)c3cnn(C4CCN(Cc5cccnc5)CC4)c3n2)cc1 [Compound 317]", "System under test": "breast line MDA468", "Property name": "pIC50", "Numeric readout": 5.82}

====

system: breast line MDA468; experiment: In vitro cell culture growth assay (MTS), MDA468; type: cell-based, human; settings: Homo sapiens, 72 h, MDA468 cells, three days after drug treatment
pIC50: −log10 of the molar value.
Below, each entry is listed alongside its reported pIC50.
Property name: pIC50

{"Compound": "O=C(CCN1CCCCC1)Nc1ccc(-c2nc(N3CCOCC3)c3cnn(-c4ccccc4)c3n2)cc1", "System under test": "breast line MDA468", "Numeric readout": 5.92}
{"Compound": "COC(=NC#N)Nc1ccc(-c2nc(N3CCOCC3)c3cnn(C4CCN(Cc5cccnc5)CC4)c3n2)cc1", "System under test": "breast line MDA468", "Numeric readout": 5.89}
{"Compound": "O=C(NCCF)Nc1ccc(-c2nc(N3CCOCC3)c3cnn(C4CCN(Cc5cccnc5)CC4)c3n2)cc1F [Compound 619]", "System under test": "breast line MDA468", "Numeric readout": 5.89}

====

system: breast line MDA468; experiment: In vitro cell culture growth assay (MTS), MDA468; assay type: cell-based, human; settings: Homo sapiens, 72 h, MDA468 cells, three days after drug treatment
Property name: log10 of IC50 (log10 of the value in nM)

{"Compound": "O=C(Oc1ccccc1)N1CCC(n2ncc3c(N4CCOCC4)nc(-c4ccc5[nH]ccc5c4)nc32)CC1 [Compound 243]", "log10 of IC50": 3.63}
{"Compound": "CCCOC(=O)N1CCC(n2ncc3c(N4CCOCC4)nc(-c4ccc(NC(=O)Nc5ccccc5)cc4)nc32)CC1 [Compound 849]", "log10 of IC50": 2.48}
{"Compound": "COC(=O)N1CCC(n2ncc3c(N4CCOCC4)nc(-c4ccc(NC(=O)Nc5ccc(CCN6CCCCC6)cc5)cc4)nc32)CC1 [Compound 915]", "log10 of IC50": 1.40}
{"Compound": "CNC(=O)Nc1ccc(-c2nc(N3CCOCC3)c3cnn(C4CCN(C(=O)OCCBr)CC4)c3n2)cc1 [Compound 804]", "log10 of IC50": 2.90}
{"Compound": "C=CC(=O)Nc1ccc(-c2nc(N3CCOCC3)c3cn[nH]c3n2)cc1 [Compound 526]", "log10 of IC50": 3.85}
{"Compound": "O=C(NCCF)Nc1ccc(-c2nc(N3CCOCC3)c3cnn(C4CCN(CC(F)(F)F)CC4)c3n2)cc1 [Compound 783]", "log10 of IC50": 2.59}
{"Compound": "c1cc2cc(-c3nc(N4CCOCC4)c4cnn(C5CCSCC5)c4n3)ccc2[nH]1 [Compound 171]", "log10 of IC50": 3.46}
{"Compound": "COc1cccc(-c2nc(N3CCOCC3)c3cnn(C4CCN(Cc5ccccc5)CC4)c3n2)c1 [Example 32]", "log10 of IC50": 4.00}
